System: SH-SY5Y
assay-details: Cytotoxicity against human SH-SY5Y cells assessed as reduction in cell viability after 24 hrs by MTT assay
Assay type: cell-based
reported-property: Activity (µM)
Answers are plain numbers, in µM.

Cc1c(C)c2ccc(OCC3CCN(Cc4cccc(CO)c4)CC3)cc2oc1=O :: 43

Okay, next one:
Exercise: What does the record list as Activity for Cc1c(C)c2ccc(OCC3CCN(Cc4cccc(CO[N+](=O)[O-])c4)CC3)cc2oc1=O ?
Key: 36

###

target-desc: UniProt P21397
Sequence (P21397 whole entry): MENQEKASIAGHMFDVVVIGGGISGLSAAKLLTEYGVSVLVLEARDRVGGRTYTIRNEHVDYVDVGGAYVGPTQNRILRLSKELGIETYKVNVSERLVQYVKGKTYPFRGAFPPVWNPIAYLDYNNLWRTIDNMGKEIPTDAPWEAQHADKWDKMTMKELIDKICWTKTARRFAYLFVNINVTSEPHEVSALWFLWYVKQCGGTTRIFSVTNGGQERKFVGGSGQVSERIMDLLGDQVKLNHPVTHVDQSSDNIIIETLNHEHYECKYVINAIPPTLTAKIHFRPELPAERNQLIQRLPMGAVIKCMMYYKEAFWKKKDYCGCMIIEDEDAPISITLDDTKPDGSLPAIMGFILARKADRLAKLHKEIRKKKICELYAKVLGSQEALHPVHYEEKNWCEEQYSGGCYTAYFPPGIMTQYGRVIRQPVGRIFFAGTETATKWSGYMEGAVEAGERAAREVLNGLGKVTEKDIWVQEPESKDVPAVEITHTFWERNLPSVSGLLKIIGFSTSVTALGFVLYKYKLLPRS
assay-details: Inhibition of recombinant human MAO-A expressed in baculovirus infected insect cell microsomes using kynuramine as substrate measured after 30 mins by fluorescence based assay
reported-property: IC50
Your answer should be a number followed by the unit of measure.

Cc1c(C)c2ccc(OCC3CCN(Cc4ccc(CCO)cc4)CC3)cc2oc1=O :: 1.7 µM

List the reported IC50 of each molecule below.
1. Cc1cc(=O)oc2cc(OCC3CCN(Cc4ccc(CO)cc4)CC3)ccc12
2. Cc1c(C)c2ccc(OCC3CCN(Cc4cccc(CO[N+](=O)[O-])c4)CC3)cc2oc1=O
3. Cc1cc(=O)oc2cc(OCC3CCN(Cc4cccc(CO)c4)CC3)ccc12
4. Cc1c(C)c2ccc(OCC3CCN(Cc4cccc(CO)c4)CC3)cc2oc1=O
5. Cc1cc2ccc(OCC3CCN(Cc4cccc(CO)c4)CC3)cc2oc1=O

Key:
11 µM
0.23 µM
3.5 µM
1.9 µM
3.9 µM

Values were extracted from ChEMBL document CHEMBL4325863.
